Catalogue of self-cleavage kobs at 640 uM GlcN6P readings, one per entry.
B1: glmS ribozyme (parent)
chain: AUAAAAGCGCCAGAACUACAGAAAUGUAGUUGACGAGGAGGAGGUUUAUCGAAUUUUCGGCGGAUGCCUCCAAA

# Variants of: B1
# EXPERIMENTAL PROTOCOL: self-cleavage kobs at 640 uM GlcN6P; higher = faster cleavage; RNA array
# TEST PARAMETERS: with glucosamine-6-phosphate
Variants at the floor of the assay were thinned out.

{"VAR": "A14C G37C", "self-cleavage kobs at 640 uM GlcN6P": "< 1e-05 s⁻¹"}
{"VAR": "G44U U54A", "self-cleavage kobs at 640 uM GlcN6P": "0.000111 s⁻¹"}
{"VAR": "U31G U55G U56C", "self-cleavage kobs at 640 uM GlcN6P": "0.000162 s⁻¹"}
{"VAR": "G13U A39G", "self-cleavage kobs at 640 uM GlcN6P": "0.000749 s⁻¹"}
{"VAR": "A42C U46A", "self-cleavage kobs at 640 uM GlcN6P": "< 1e-05 s⁻¹"}
{"VAR": "G43U C70G C71A", "self-cleavage kobs at 640 uM GlcN6P": "< 1e-05 s⁻¹"}
{"VAR": "U54C", "self-cleavage kobs at 640 uM GlcN6P": "0.0121 s⁻¹"}
{"VAR": "U30G G38C", "self-cleavage kobs at 640 uM GlcN6P": "< 1e-05 s⁻¹"}
{"VAR": "C8G U57C", "self-cleavage kobs at 640 uM GlcN6P": "< 1e-05 s⁻¹"}
{"VAR": "U47A C67A", "self-cleavage kobs at 640 uM GlcN6P": "0.0014 s⁻¹"}
{"VAR": "A15C U30A U31G C34G C67G", "self-cleavage kobs at 640 uM GlcN6P": "5.05e-05 s⁻¹"}
{"VAR": "G35A C70U", "self-cleavage kobs at 640 uM GlcN6P": "< 1e-05 s⁻¹"}
{"VAR": "A33U G63C", "self-cleavage kobs at 640 uM GlcN6P": "< 1e-05 s⁻¹"}
{"VAR": "G7U U49A A52C G60C C61U", "self-cleavage kobs at 640 uM GlcN6P": "< 1e-05 s⁻¹"}
{"VAR": "C34U A39G", "self-cleavage kobs at 640 uM GlcN6P": "< 1e-05 s⁻¹"}
{"VAR": "G29U G35A A48G A53C", "self-cleavage kobs at 640 uM GlcN6P": "< 1e-05 s⁻¹"}
{"VAR": "A12U G32A G41C G62U C68U", "self-cleavage kobs at 640 uM GlcN6P": "< 1e-05 s⁻¹"}
{"VAR": "G13U U31A U45G A48C", "self-cleavage kobs at 640 uM GlcN6P": "< 1e-05 s⁻¹"}
{"VAR": "U47C A64U", "self-cleavage kobs at 640 uM GlcN6P": "7.89e-05 s⁻¹"}
{"VAR": "C16U U31A G43U A52U", "self-cleavage kobs at 640 uM GlcN6P": "< 1e-05 s⁻¹"}
{"VAR": "G41C G59A", "self-cleavage kobs at 640 uM GlcN6P": "< 1e-05 s⁻¹"}
{"VAR": "A6G A53C G63A A64G", "self-cleavage kobs at 640 uM GlcN6P": "< 1e-05 s⁻¹"}
{"VAR": "G59U G60A", "self-cleavage kobs at 640 uM GlcN6P": "< 1e-05 s⁻¹"}
{"VAR": "C10U G29U U55G", "self-cleavage kobs at 640 uM GlcN6P": "< 1e-05 s⁻¹"}
{"VAR": "A39G G63U G66A", "self-cleavage kobs at 640 uM GlcN6P": "< 1e-05 s⁻¹"}
{"VAR": "G35U C67A U69C", "self-cleavage kobs at 640 uM GlcN6P": "< 1e-05 s⁻¹"}
{"VAR": "A53C C68U", "self-cleavage kobs at 640 uM GlcN6P": "3.67e-05 s⁻¹"}
{"VAR": "G51U U69G", "self-cleavage kobs at 640 uM GlcN6P": "5.57e-05 s⁻¹"}
{"VAR": "C8U G9C C50A G51U G60U", "self-cleavage kobs at 640 uM GlcN6P": "< 1e-05 s⁻¹"}
{"VAR": "G37U A39C A64G U69G", "self-cleavage kobs at 640 uM GlcN6P": "< 1e-05 s⁻¹"}
{"VAR": "A53C G66U", "self-cleavage kobs at 640 uM GlcN6P": "0.000128 s⁻¹"}
{"VAR": "C10A G41C", "self-cleavage kobs at 640 uM GlcN6P": "< 1e-05 s⁻¹"}
{"VAR": "A52U U69C", "self-cleavage kobs at 640 uM GlcN6P": "5.38e-05 s⁻¹"}
{"VAR": "G9A G32C C67U", "self-cleavage kobs at 640 uM GlcN6P": "< 1e-05 s⁻¹"}
{"VAR": "G41U C58G C61U A64U C71U", "self-cleavage kobs at 640 uM GlcN6P": "< 1e-05 s⁻¹"}
{"VAR": "U54C U65G", "self-cleavage kobs at 640 uM GlcN6P": "0.000671 s⁻¹"}
{"VAR": "U65G G66C", "self-cleavage kobs at 640 uM GlcN6P": "0.000223 s⁻¹"}
{"VAR": "A14G A36U C68A", "self-cleavage kobs at 640 uM GlcN6P": "< 1e-05 s⁻¹"}
{"VAR": "A42C A48U C68G", "self-cleavage kobs at 640 uM GlcN6P": "< 1e-05 s⁻¹"}
